biological target: T1, AAV5; test: SPR, AAV on CM5 chip;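 note: surface plasmon resonance with AAV amine-coupled to the chip as ligand, nanobodies injected as analyte over a concentration series, rate constants and affinity fitted from binding curves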
T1 construct: also called adeno-associated virus serotype 5
Measured endpoint: kon (M⁻¹ s⁻¹)
Numeric answer only, unit M⁻¹ s⁻¹ assumed.

Entry A4-050 (VHH) VHH: VQLQESGGGLVQPGGSLRLSCAASGSSFVINTMGWYRQAPGKQRELVAAVTRGGSTNYADSVKGRFTISRDNAKNTVYLQMNSLRPEDTAVYYCHVDEVRQSSWTTSNLWGQGTQVTVSS ; kon = 10000

// A4-014 (VHH) VHH: VQLQESGGGLVQPGGSLRLSCAASGSRFSINSMGWYRQAPGKQRELVATVTRGGNTNYAGSVKGRFTISRDNAKNTVYLQMNSLRPEDTAVYYCHVDEVRESSWTTSNLWGQGTQVTVSS : kon value = 8860

Consider A4-024 (VHH) VHH: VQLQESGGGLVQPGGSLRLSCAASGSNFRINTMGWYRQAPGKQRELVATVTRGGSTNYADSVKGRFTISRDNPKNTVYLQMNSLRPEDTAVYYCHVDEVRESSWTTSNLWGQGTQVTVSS . Its measured kon is 3670

Reported kon of A4-008 (VHH) VHH: VQLQESGGGLVQAGGSLRLSCAASGRAFSINTMGWYRQAPPKQRELVATVTRGGSTNYAGSVKGRFTISRDNAKNTIYLQMNSLRPEDTAVYYCHVDEVRQSSWTTSNIWGQGTQVTVSS : 264000

Recorded kon (binder A4-040 (VHH) VHH: VQLQESGGGLVQPGGSLRLSCAASGRIFSINTMGWYRQAPGKQRELVATVTRGGSTNYADSVKGRFTISRDNAKNTVYLQMNSLRPEDTAVYYCHVDEIRQSSWTTSNLWGQGTQVTVSS ): 72300
